# system name: Mitogen-activated protein kinase kinase kinase 3 (Homo sapiens) (UniProt Q99759)
# Sequence (Q99759 whole entry, looked up): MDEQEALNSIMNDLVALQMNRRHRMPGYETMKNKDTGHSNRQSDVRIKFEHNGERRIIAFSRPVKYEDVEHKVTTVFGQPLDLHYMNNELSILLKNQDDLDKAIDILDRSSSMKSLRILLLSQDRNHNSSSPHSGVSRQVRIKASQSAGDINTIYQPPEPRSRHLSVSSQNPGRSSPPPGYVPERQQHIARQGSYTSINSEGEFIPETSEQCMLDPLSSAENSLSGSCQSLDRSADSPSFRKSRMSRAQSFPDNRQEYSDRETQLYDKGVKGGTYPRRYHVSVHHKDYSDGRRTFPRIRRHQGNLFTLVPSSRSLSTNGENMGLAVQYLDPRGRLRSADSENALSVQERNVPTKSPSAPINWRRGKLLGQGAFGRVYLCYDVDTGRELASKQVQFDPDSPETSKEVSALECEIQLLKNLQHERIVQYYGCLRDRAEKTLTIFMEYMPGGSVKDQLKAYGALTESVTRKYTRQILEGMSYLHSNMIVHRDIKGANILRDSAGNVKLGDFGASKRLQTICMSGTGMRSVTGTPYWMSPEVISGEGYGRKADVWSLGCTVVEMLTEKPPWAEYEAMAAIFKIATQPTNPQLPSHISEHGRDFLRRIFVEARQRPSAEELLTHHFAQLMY
# experiment notes: MEKK3 PB1-MEK5 interaction blockers – biochemical, bead multiplex flow cytometry, wildtype, dose response (AID 1896)
# applied conditions: bead-based multiplex flow cytometry, MEK5-MEKK3 PB1 binding
Activity calls are given as the source filed them. The rule behind the calls is not given here.
property: EC50

CCN1C(c2ccccc2)=C(c2ccccc2)S/C1=C/C=C1\SC(=S)N(C)C1=O :: 3.4 µM
CC(=O)Nc1ccc(OCC(O)Cn2c3ccccc3c3ccccc32)cc1 (stereo not drawn) :: > 30 µM (inactive)
CC(=O)c1c(C)[nH]c(C(=O)NC2=NCCS2)c1C :: > 30 µM (inactive)
CCCN(CCC)CCNC(=O)c1cc2c(-c3ccc(Cl)cc3)nn(C)c2s1 :: > 30 µM (inactive)
C#CCOCCOCCOCCNc1nc(N2CCN(C(=O)[C@H](Cc3cc4ccccc4[nH]3)n3cc([C@@H](N)C(C)CC)nn3)CC2)nc(N2CCN(C(=O)[C@H](Cc3cc4ccccc4[nH]3)n3cc([C@@H](N)Cc4ccc(O)cc4)nn3)CC2)n1 (stereo partly drawn) :: > 30 µM (inactive)
C#CCOCCOCCOCCNc1nc(N2CCN(C(=O)[C@H]([C@@H](C)CC)n3cc([C@@H](N)Cc4ccc(O)cc4)nn3)CC2)nc(N2CCN(C(=O)[C@H](Cc3cc4ccccc4[nH]3)n3cc([C@@H](N)C(C)CC)nn3)CC2)n1 (stereo partly drawn) :: > 30 µM (inactive)

Query block: Value wanted: EC50 (Mitogen-activated protein kinase kinase kinase 3 (Homo sapiens) (UniProt Q99759)) of entry Cc1nc(Nc2cnc(/C=C/c3cc(C(=O)Nc4cccc(C(F)(F)F)c4)ccc3C)cn2)cc(N2CCNCC2)n1
Result block: 25.2 µM

Query block: Query for Mitogen-activated protein kinase kinase kinase 3 (Homo sapiens) (UniProt Q99759): what EC50 does the record show for Cc1ccc(-c2csc(NC(=O)C[n+]3cc(-c4ccc(C)cc4)n4c3CCC4)n2)cc1 ?
Result block: > 30 µM (inactive)

Query block: Write down the reported EC50 of Cc1c2cc(O)c(=O)cc-2oc2cc(O)c(O)cc12 , test system: Mitogen-activated protein kinase kinase kinase 3 (Homo sapiens) (UniProt Q99759).
Result block: > 30 µM (inactive)

---

# system name: Mitogen-activated protein kinase kinase kinase 3 (Homo sapiens)
# experiment notes: MEKK3 PB1-MEK5 interaction blockers – biochemical, bead multiplex flow cytometry, wildtype, dose response (AID 1896)
# applied conditions: bead-based multiplex flow cytometry, MEK5-MEKK3 PB1 binding
The source made the active and inactive calls. The rule behind the calls is not given here.
property: EC50

In the examples that follow, each entry is paired with its recorded EC50.
COc1ccc(-n2nc3c(N)n[nH]c3cc2=O)cc1 :: 1.13 µM
COc1ccc(CNC[C@@H](CCCCN(C)Cc2ccc(OC)cc2)N2C[C@H](c3ccccc3)N(CCc3ccc(Cl)c(Cl)c3)C(=O)C2=O)cc1 :: > 30 µM (inactive)
Brc1ccc(N=C/C=C/C=C/Nc2ccc(Br)cc2)cc1 :: 10.6 µM
Cc1ccnc(NC(=O)C2(c3cccs3)CCOCC2)c1 :: > 30 µM (inactive)
C#CCOCCOCCOCCNc1nc(N2CCN(C(=O)[C@H](Cc3ccc(O)cc3)n3cc([C@@H](N)CC(C)C)nn3)CC2)nc(N2CCN(C(=O)[C@H](Cc3cc4ccccc4[nH]3)n3cc([C@@H](N)CC(C)C)nn3)CC2)n1 :: > 30 µM (inactive)

Now consider a different molecule.
Query block: Entry CCCSc1ncnc2sc(C)c(C)c12 has what EC50?
Result block: > 30 µM (inactive)

---

# system name: Mitogen-activated protein kinase kinase kinase 3 (Homo sapiens)
# experiment notes: MEKK3 PB1-MEK5 interaction blockers – biochemical, bead multiplex flow cytometry, wildtype, dose response (AID 1896)
# applied conditions: bead-based multiplex flow cytometry, MEK5-MEKK3 PB1 binding
Activity calls are given as the source filed them. The rule behind the calls is not given here.
Allowed answers: true (active), false (inactive)

CCn1cc(C(=O)O)c(=O)c2cc(F)c(N3CCN(C(=S)NC(=O)c4ccc(Br)cc4)CC3)cc21 :: false
C#CCOCCOCCOCCNc1nc(N2CCN(C(=O)[C@H](CCC(=O)O)n3cc(C(N)CO)nn3)CC2)nc(N2CCN(C(=O)[C@H](Cc3cc4ccccc4[nH]3)n3cc(C(N)[C@H](C)CC)nn3)CC2)n1 (some centres not stated) :: false
CCN(Cc1ccccc1)S(=O)(=O)c1ccc(C(=O)N(CCCN(C)C)c2nc3ccc(F)cc3s2)cc1 :: false
COc1cccc(OC)c1-c1nn2c(-c3cc(-c4ccccc4)n[nH]3)nnc2s1 :: true
COc1ccc(-c2csc(N(CCCN(C)C)C(=O)c3ccccc3Cl)n2)cc1 :: false
CCN1/C(=C\c2ccc3cc(C)ccc3[n+]2CC)Sc2cc(C)c(C)cc21 :: true
CS(=O)(=O)N1N=C(c2ccccc2)CC1c1ccc2c(c1)OCO2 (configuration not stated) :: false
Nc1cc2nc[nH]c2cc1N :: true
C#CCOCCOCCOCCNc1nc(N2CCN(C(=O)[C@H](Cc3ccc(O)cc3)n3cc([C@@H](N)C(C)CC)nn3)CC2)nc(N2CCN(C(=O)[C@H](Cc3cc4ccccc4[nH]3)n3cc([C@@H](N)Cc4ccc(O)cc4)nn3)CC2)n1 (some centres not stated) :: false
CCN1/C(=C/C(C)=C/c2sc3ccccc3[n+]2CC)Sc2ccccc21 :: true

Query block: Short answer needed: outcome of this test for O=C(CCCC(=O)N(CC(=O)NC1CCCC1)C1CCCC1)Nc1ccccn1 ?
Result block: false

Query block: Assay result, entry CCCCCc1cc(=O)oc2c(C(CCN3CCCCC3)c3ccc4c(c3)OCO4)c(OC)cc(OC)c12 (configuration not stated) — outcome?
Result block: false

Query block: I would be grateful if you could indicate the recorded call for CCC(/C=C1\Sc2ccc(OC)cc2N1CC)=C\c1sc2ccc(OC)cc2[n+]1CCCS(=O)(=O)[O-] .
Result block: false

Query block: What did this assay record as the result for CCN(CC)CCOC(=O)c1ccc(N/C=C(/C#N)c2nc(-c3cc4ccccc4oc3=O)cs2)cc1 ?
Result block: true

---

# system name: Mitogen-activated protein kinase kinase kinase 3 (Homo sapiens) (UniProt Q99759)
# experiment notes: MEKK3 PB1-MEK5 interaction blockers – biochemical, bead multiplex flow cytometry, wildtype, dose response (AID 1896)
# applied conditions: bead-based multiplex flow cytometry, MEK5-MEKK3 PB1 binding
Activity calls are given as the source filed them. No rule for the calls is given here.
Respond with a class label; see 1.0 (active), 0.0 (inactive)

For orientation, consider the following solved cases.
Cc1sc(NC(=O)c2ccccc2)c(C(c2ccccn2)N2CCN(CCO)CC2)c1C (configuration not stated) :: 0.0
CCN1/C(=C/c2ccc3cc(C)ccc3[n+]2C)Sc2ccc3sccc3c21 :: 0.0
COc1cc(CNCCc2c[nH]c3ccccc23)ccc1OCc1ccccc1F :: 0.0
CCN1CCN(Cc2ccc(NC(=O)c3cc(NC(=O)C(=O)c4c[nH]c5ccccc45)cc(OC)c3)cc2C(F)(F)F)CC1 :: 0.0
CNc1nc(-c2c[nH]c3ccccc23)cs1 :: 1.0

Query block: Call for entry Cc1cc(N=Nc2ccc(C)c(N=Nc3cc(C)c(N)cc3N)c2)c(N)cc1N :
Result block: 0.0

Query block: Status in this test for COc1ccc2nc(C)cc(N/N=C/c3cccc(OC)c3O)c2c1 ?
Result block: 0.0

---

# system name: Mitogen-activated protein kinase kinase kinase 3 (Homo sapiens)
# experiment notes: MEKK3 PB1-MEK5 interaction blockers – biochemical, bead multiplex flow cytometry, wildtype, dose response (AID 1896)
# applied conditions: bead-based multiplex flow cytometry, MEK5-MEKK3 PB1 binding
The source made the active and inactive calls. The rule behind the calls is not given here.
Choose one outcome from this list and give only that: true (1) (active), false (0) (inactive)

CCc1ccc(Nc2n[n+](-c3ccccc3)c(-c3ccc(OC)c(Br)c3)s2)cc1 :: false (0)

Query block: Can you look up the reported call for CCCCCc1cc(=O)oc2c(C(CCN3CCCCC3)c3ccc(OC)cc3)c(OC)cc(OC)c12 (stereo not given) for me?
Result block: false (0)

Query block: What was the test verdict on CCN1/C(=C/c2ccc3cc(C)cc(C)c3[n+]2CC)Sc2cc(C)ccc21 ?
Result block: true (1)

Query block: Test call for this molecule, please: Cc1nc(N)sc1-c1csc(Nc2ncccn2)n1
Result block: false (0)

Query block: Dear all, I need the recorded test outcome for CCOC(=O)C1=C(c2ccccc2)NC(N)=NC1c1ccc(OCc2ccc(C(=O)OC)cc2)cc1 (stereo not given) , thank you.
Result block: false (0)

---

# system name: Mitogen-activated protein kinase kinase kinase 3 (Homo sapiens)
# experiment notes: MEKK3 PB1-MEK5 interaction blockers – biochemical, bead multiplex flow cytometry, wildtype, dose response (AID 1896)
# applied conditions: bead-based multiplex flow cytometry, MEK5-MEKK3 PB1 binding; measured here: Ki from EC50
property: Ki (µM)

In the examples that follow, each entry is paired with its recorded Ki.
COc1ccc(-n2nc3c(N)n[nH]c3cc2=O)cc1 :: 0.97
Cc1cc2cc(CNC(=O)NC3CCCCC3)ccc2[nH]1 :: 3.41
CN(C)c1ccc(/C=C/C=C2/SC(=S)N(c3ccccc3)C2=O)cc1 :: 1.03

[A] CCN1/C(=C/C(C)=C/c2sc3ccccc3[n+]2CC)Sc2ccccc21
[B] CCC(/C=C1\Sc2ccc(OC)cc2N1CCO)=C\c1sc2ccc(OC)cc2[n+]1CCO
[C] Nc1cc2nc[nH]c2cc1N
[D] O=C(Nc1ccc(C2=NCCN2)cc1)c1ccc(C(=O)Nc2ccc(C3=NCCN3)cc2)c([N+](=O)[O-])c1
[E] Nc1ccc(Nc2ccccc2N)cc1
Query block: Put these in order: smallest Ki first, largest last. Ranked list of labels, please, in the requested order.
Result block: A, B, C, D, E
